Target: T1, human CD30 (commercial, conjugated to digoxigenin) (human, UniProt P28908 19-379, limits assumed, conjugated to digoxigenin (DIG))
T1 sequence (looked up): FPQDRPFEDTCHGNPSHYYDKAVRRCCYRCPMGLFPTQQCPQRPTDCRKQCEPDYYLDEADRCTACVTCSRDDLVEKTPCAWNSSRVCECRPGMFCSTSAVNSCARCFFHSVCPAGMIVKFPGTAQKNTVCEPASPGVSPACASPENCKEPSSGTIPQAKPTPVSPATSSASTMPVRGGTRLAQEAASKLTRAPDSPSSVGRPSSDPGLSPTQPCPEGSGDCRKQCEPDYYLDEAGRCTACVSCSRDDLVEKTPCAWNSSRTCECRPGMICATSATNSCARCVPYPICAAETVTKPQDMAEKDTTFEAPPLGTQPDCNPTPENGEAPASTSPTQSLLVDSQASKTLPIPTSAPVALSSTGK
Assay: AlphaScreen competition
outcomeMeasure: Fold IC50 vs H3/L3 (fold)
Write the value in fold as a bare number.

Recorded Fold IC50 vs H3/L3 (binder AC10 H3/L3.40 (antibody, IgG1, name in Kabat numbering, V domains shown) VH: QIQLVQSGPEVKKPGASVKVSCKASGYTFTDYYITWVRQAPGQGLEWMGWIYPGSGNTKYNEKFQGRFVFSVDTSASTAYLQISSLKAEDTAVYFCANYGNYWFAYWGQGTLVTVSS VL: DIVLTQSPDSLAVSLGERATINCKASQSVDFDGDSYMNWYQQKPGQPPKVLIYAASNLQSGIPARFSGSGSGTDFTLTINSLEAEDAATYYCQQSNEDPWTFGGGTKVEIK ): 0.87
